ASSAY NAME: Toxicity against human dermal fibroblasts assessed as cell viability at 5 uM relative to control
Format: cell-based, Fibroblast
PROTOCOL CONDITIONS: read-out: Activity
QUANTITY NAME: viability at 5 µM (%)
Only the number, expressed in %, is required.

Prompt: Specify viability at 5 µM for CC(/C=C/C1=CCCCC1(C)C)=C\C=C\C(C)=C\COC(=O)c1cc(O)c(O)c(O)c1 and stop.
Response: 84.2

* * *

ASSAY NAME: Toxicity against human dermal fibroblasts assessed as cell viability at 10 uM relative to control
Type: cell-based, Fibroblast
PROTOCOL CONDITIONS: read-out: Activity
QUANTITY NAME: viability at 10 µM (%)
Only the number, expressed in %, is required.

{"COMPOUND": "CC(/C=C/C1=CCCCC1(C)C)=C\\C=C\\C(C)=C\\COC(=O)c1cc(O)ccc1O", "viability at 10 µM, %": 91.8}

Moving on to the next compound.
Prompt: Specify viability at 10 µM for CC1=C(/C=C/C(C)=C/C=C/C(C)=C/C(=O)O)C(C)(C)CCC1 and stop.
Response: 105

* * *

ASSAY NAME: Anti-aging activity in human dermal fibroblasts assessed as inhibition rate of MMP1 expression at 10 uM relative to control
Type: functional
PROTOCOL CONDITIONS: Fibroblast
Param threshold (20%) applies to inhibition at 10 µM; output Satisfied when value >= threshold, Not satisfied when value < threshold.

Some entries whose results are on file:
{"COMPOUND": "O=C(O[C@@H]1Cc2c(O)cc(O)cc2O[C@@H]1c1cc(O)c(O)c(O)c1)c1cc(O)c(O)c(O)c1 [EPIGALOCATECHIN GALLATE]", "CLASS": "Satisfied"}
{"COMPOUND": "CC1=C(/C=C/C(C)=C/C=C/C(C)=C/C(=O)O)C(C)(C)CCC1", "CLASS": "Satisfied"}
{"COMPOUND": "CC(/C=C/C1=CCCCC1(C)C)=C\\C=C\\C(C)=C\\COC(=O)c1cc(O)ccc1O", "CLASS": "Not satisfied"}
{"COMPOUND": "COc1cc(O)c(C(=O)OC/C=C(C)/C=C/C=C(C)/C=C/C2=CCCCC2(C)C)c(O)c1", "CLASS": "Not satisfied"}

Could you now look at the following compound, please?
Prompt: Reported inhibition at 10 µM reaches at least 20% for COc1cccc(C(=O)OC/C=C(C)/C=C/C=C(C)/C=C/C2=CCCCC2(C)C)c1O ?
Response: Not satisfied

* * *

ASSAY NAME: Toxicity against mouse B16/F10 cells assessed as cell viability at 5 uM relative to control
Type: cell-based
PROTOCOL CONDITIONS: read-out: Activity
In this section we review reported viability at 5 µM values for a set of compounds.
Only the number, expressed in %, is required.

Consider the following illustrative entries.
{"RECORD SMILES": "CC(/C=C/C1=CCCCC1(C)C)=C\\C=C\\C(C)=C\\COC(=O)c1cc(O)c(O)c(O)c1", "viability at 5 µM / %": 83.9}
{"RECORD SMILES": "COc1cc(O)c(C(=O)OC/C=C(C)/C=C/C=C(C)/C=C/C2=CCCCC2(C)C)c(O)c1", "viability at 5 µM / %": 102}
{"RECORD SMILES": "CC(/C=C/C1=CCCCC1(C)C)=C\\C=C\\C(C)=C\\COC(=O)c1cccc(O)c1O", "viability at 5 µM / %": 97}
{"RECORD SMILES": "COc1cccc(C(=O)OC/C=C(C)/C=C/C=C(C)/C=C/C2=CCCCC2(C)C)c1O", "viability at 5 µM / %": 107}
{"RECORD SMILES": "CC(/C=C/C1=CCCCC1(C)C)=C\\C=C\\C(C)=C\\COC(=O)c1cc(O)ccc1O", "viability at 5 µM / %": 99.7}

Moving on to the next compound.
Prompt: Specify viability at 5 µM for CC(/C=C/C1=CCCCC1(C)C)=C\C=C\C(C)=C\COC(=O)c1c(O)cccc1O and stop.
Response: 102
